# Tested on: Malme-3M
# method.summary: NCI tumour cell line growth inhibition, 48 h
The source made the active and inactive calls. Rule as the data show it: active = GI50 up to about 1.1 µM and inactive = higher. Square brackets hold non-standard residues; d marks the D form. Peptide text beside a SMILES is read from it. * marks the point of attachment. Boc = CC(C)(C)OC(=O)*; OBn = c1ccc(CO*)cc1
The entries below come with measured GI50 values attached.

Examples with answers:
COc1cc2cc(C(=O)N3CC(CCl)c4ccccc43)[nH]c2c(OC)c1OC (configuration not stated): 36.5 µM (inactive)
Cn1ccc(C(=O)NCCN(CCNC(=O)c2ccn(C)c(=O)c2O)CCNC(=O)c2ccn(C)c(=O)c2O)c(O)c1=O: > 100 µM (inactive)
COC(=O)c1sc(=O)sc1SCc1cccc(CSc2sc(=O)sc2C(=O)OC)c1: 18.7 µM (inactive)
CO[P@@]1(=O)O[C@@H](c2ccccc2)[C@H](O)[C@]1(O)c1ccccc1: > 100 µM (inactive)
Nc1nc(N)c(-c2ccccc2)c(CCC(=O)Nc2ccc(Cl)cc2)n1: > 100 µM (inactive)
CCC(=O)C(c1ccccc1)c1ccccn1 (configuration not stated): > 100 µM (inactive)
CC(=O)NC(CC(C)C)C(=O)NC(Cc1ccccc1)C(=S)N1CCCC1 (configuration not stated): > 100 µM (inactive)
Cc1csc(=S)n1OC(=O)NC1CCCCC1: > 100 µM (inactive)

stdin: Data request, read-out GI50, for `Cn1ccc(C(=O)NCCN(CCNC(=O)c2ccn(C)c(=O)c2O)CCNC(=O)c2cccc(=O)n2O)c(O)c1=O`
stdout: > 100 µM (inactive)

stdin: For O=C(O)c1cc(Cl)cc2c1NC1(N2)C(=O)Nc2ccccc21 (configuration not stated) then?
stdout: 69.2 µM (inactive)

stdin: For `O=S1(=O)OCCOS(=O)(=O)C1(Cl)Cl` then?
stdout: > 100 µM (inactive)

stdin: For N#CC(c1ccccc1)N(CCCCCCN(C(=O)c1ccccc1)C(C#N)c1ccccc1)C(=O)c1ccccc1 (configuration not stated) then?
stdout: 35.8 µM (inactive)

stdin: For C[C@@H](NC(=O)CNC(=O)OC(C)(C)C)C(=O)N[C@@H](Cc1ccccc1)C(=O)OCc1ccccc1 (Boc-Gly-[dA]-Phe-OBn) then?
stdout: 16.2 µM (inactive)

* * *

# Test system: SW-620
# method.summary: NCI tumour cell line growth inhibition, 48 h
Active and inactive are the calls of the source. Cut-off read from the data, not from the text of the source: active = GI50 up to about 1.1 µM and inactive = higher.
readout.name: GI50

Examples with answers:
CN(C)CCCNC1=C(Cl)C(=O)c2c(O)ccc(O)c2C1=O: 1.82 µM (inactive)
OC12c3ccccc3C1CCCCCC21OCCCO1 (centres undefined): > 100 µM (inactive)
CCOC(=O)c1ccc(OCc2nc3cc(C(F)(F)F)ccc3nc2-c2ccccc2)cc1: > 100 µM (inactive)

stdin: Data request, read-out GI50, for `Cc1cc(C)nc(NS(=O)(=O)c2ccc(NC(=O)c3c4ccccc4nc4ccccc34)cc2)n1`
stdout: > 100 µM (inactive)

stdin: For `CSC(=N)NNC(=O)CCC(=O)Nc1ccccc1C(F)(F)F` then?
stdout: > 82.2 µM (inactive)

* * *

# System: HOP-92
# method.summary: NCI tumour cell line growth inhibition, 48 h
Active and inactive are the calls of the source. Rule as the data show it: active = GI50 up to about 1.1 µM and inactive = higher.
The entries below come with measured GI50 values attached.

Examples with answers:
COc1cc(C(=O)N(C)N(C)C)cc(OC)c1OC: > 10 µM (inactive)
NC(=S)N/C=C1\C(=O)Oc2ccccc2C1=O: 35.5 µM (inactive)

Now take the following compound into account.
stdin: Data request, read-out GI50, for COc1cc(C(C#N)NNC(=O)c2ccccc2O)ccc1O (configuration not stated)
stdout: 2.98 µM (inactive)

* * *

# Tested on: SK-MEL-2
# method.summary: NCI tumour cell line growth inhibition, 48 h
Activity calls are given as the source filed them. Rule as the data show it: active = GI50 up to about 1.1 µM and inactive = higher.
readout.name: GI50

stdin: Data request, read-out GI50, for `CN1C(=O)N/C(=C\c2ccc(S(=O)(=O)N/N=C/c3ccccc3)cc2)C1=O`
stdout: 15 µM (inactive)

stdin: For `COc1ccc(CC(=O)NCCc2ccc(OC)c(OC)c2OC)cc1` then?
stdout: > 100 µM (inactive)

stdin: For `COc1ccccc1NC(=O)C(=O)Cc1cnc2ccccc2n1` then?
stdout: > 100 µM (inactive)

stdin: For `Cc1ccc(NC(=S)SCCC(=O)O)cc1` then?
stdout: > 100 µM (inactive)

* * *

# System: NCI-H23
# method.summary: NCI tumour cell line growth inhibition, 48 h
The source made the active and inactive calls. Cut-off read from the data, not from the text of the source: active = GI50 up to about 1.1 µM and inactive = higher.
The entries below come with measured GI50 values attached.

OC12c3ccccc3C1CCCCCC21OCCCO1 (stereo not drawn): > 100 µM (inactive)
Oc1cc(C2OCCCO2)cc(O)c1O: > 100 µM (inactive)
CSc1ncnc2c1cnn2Cc1cn(COCC(O)CO)nn1 (stereo not drawn): > 100 µM (inactive)

stdin: Data request, read-out GI50, for `Nc1c2ccccc2nc2c1ccc1ncccc12`
stdout: 17.4 µM (inactive)

stdin: For COC(=O)C1CCc2c1c(=O)n1c([nH]c3ccccc31)c2C#N (stereo not drawn) then?
stdout: > 100 µM (inactive)

stdin: For NC(=S)N1N=C(c2ccc3c(c2)CCC3)CC1c1ccccc1 (stereo not drawn) then?
stdout: 25.1 µM (inactive)

stdin: For CC1CCC(O)/C=C/C(=O)OC(C)C(O)/C=C/C(=O)O1 (stereo not drawn) then?
stdout: > 73.5 µM (inactive)

stdin: For O=C(O)C1CCCN(CCc2c[nH]c3ccccc23)C1 (stereo not drawn) then?
stdout: > 100 µM (inactive)

stdin: For `CCCCC1=C(Br)C(=C(Br)Br)OC1=O` then?
stdout: 4.37 µM (inactive)

stdin: For `C=Cc1c(C)c(OC)cc2c1Oc1ccc(OC)c(C)c1CC2` then?
stdout: > 100 µM (inactive)

stdin: For `CN(C(=O)c1ccc2c(c1)sc1c(=O)n(C)c3ccccc3c12)c1ccccc1` then?
stdout: > 100 µM (inactive)

stdin: For `C=CCN1C(=O)CS/C1=N/NC(=O)C(O)(c1ccccc1)c1ccccc1` then?
stdout: > 10 µM (inactive)

stdin: For COc1cc(C(C)c2cc3c(cc2OCCCCCOc2cc4c(cc2C(C)c2cc(OC)c(OC)c(OC)c2)OCO4)OCO3)cc(OC)c1OC (stereo not drawn) then?
stdout: > 100 µM (inactive)

* * *

# Tested on: SK-MEL-28
# method.summary: NCI tumour cell line growth inhibition, 48 h
Calls of active or inactive are those of the source. No stated cut-off is given here; in the data, active = GI50 up to about 1.1 µM and inactive = higher.
readout.name: GI50

C(=N/c1ccccc1C1SCCCS1)/c1ccccc1: > 100 µM (inactive)
CCC12C=CCN3CCC4(c5cc(C6(C(=O)OC)CCCCCc7c6[nH]c6ccccc76)c(OC)cc5N(C)C4C(O)(C(=O)OC)C1OC(C)=O)C32 (stereo not given): 2.23 µM (inactive)
CCN(CC)Cc1ccc2cccnc2c1O: 7.35 µM (inactive)
Cc1cc(C)n(C(=O)CSc2nnc(SCC(=O)n3nc(C)cc3C)s2)n1: > 100 µM (inactive)

Now take the following molecule into account.
stdin: Data request, read-out GI50, for `COc1ccc(-c2onc(-c3c(C)cc(C)cc3C)c2C2=NCCCN2)cc1`
stdout: 36.4 µM (inactive)

* * *

# Test system: OVCAR-4
# method.summary: NCI tumour cell line growth inhibition, 48 h
Activity calls are given as the source filed them. Cut-off read from the data, not from the text of the source: active = GI50 up to about 1.1 µM and inactive = higher.
The entries below come with measured GI50 values attached.

Examples with answers:
NC(=S)N/C=C1\C(=O)Oc2ccccc2C1=O: > 100 µM (inactive)
CCC12C=CCN3CCC4(C(=C(C(=O)OC)C1)Nc1ccccc14)[C@H]32 (stereo not given in full): 29.4 µM (inactive)
C#CCn1c(=O)c(C#N)c(O)c2cc3ccccc3nc21: > 10 µM (inactive)
CC1(C)OCC(/C=C\C(O)CC2(C)OCCO2)CO1 (stereo not given): > 100 µM (inactive)
O=c1oc(-c2ccc(O)cc2)cc2cc(O)ccc12: 32.7 µM (inactive)

stdin: # get_value(readout= GI50, system= OVCAR-4) for CC1(C)CC(=O)C2=C(C1)C(c1ccccc1Cl)C1C(=O)CC(C)(C)CC1(O)O2 (stereo not given)
stdout: > 100 µM (inactive)

stdin: For `O=C(NCCCl)N(O)C(=O)Nc1ccccc1` then?
stdout: > 100 µM (inactive)

stdin: For CC(=O)OC1OC(c2ccoc2)C[C@@]12C1CCC3O[C@]3(C)[C@]1(C)C[C@H](OC(C)=O)[C@H]2C (stereo not given in full) then?
stdout: 59.2 µM (inactive)

stdin: For `CCCCCCCCCCCCCCCCCCNC(=S)N/C=C1\C(=O)Nc2ccccc2C1=O` then?
stdout: 20.6 µM (inactive)

stdin: For COC(=O)C1=C(C(=O)OC)C2OC1C1C2C2(C)C(C)=C(C)C1(C)[S+]2[O-] (stereo not given) then?
stdout: 12.1 µM (inactive)

* * *

# Test system: HOP-92
# method.summary: NCI tumour cell line growth inhibition, 48 h
Active and inactive are the calls of the source. No stated cut-off is given here; in the data, active = GI50 up to about 1.1 µM and inactive = higher.
Mark one answer only. Choices: label 1 for active, label 0 for inactive

CO[C@H]1C[C@H](O[C@H]2CC[C@]3(C=O)[C@H]4CC[C@]5(C)[C@@H](C6=CC(=O)OC6)CC[C@]5(O)[C@@H]4CC[C@]3(O)C2)O[C@H](C)[C@H]1O[C@@H]1O[C@H](CO[C@@H]2O[C@H](CO)[C@@H](O)[C@H](O)[C@H]2O)[C@@H](O)[C@H](O)[C@H]1O: label 1
CCCC(=O)NC(NC1CCCCC1)(C(=O)OCC)C(F)(F)F (stereo not drawn): label 0

stdin: Hey, what did the test say about `COC(=O)c1ccccc1OCc1cc(=O)oc2ccc(C)cc12` ?
stdout: label 0
